- Test system: MCF7
- METHOD: HRG-induced Akt activation (dPAkt = log2 pAkt/Akt HRG-stimulated minus log2 pAkt/Akt basal) (log2 ratio difference); higher = stronger HRG-induced Akt(T308) phosphorylation
- STUDY_CONDITIONS: miRNA mimic concentration 10 nM; time after transfection 72 h; heregulin 10 ng/ml; stimulation time 1 h
EXPERIMENTAL_ENDPOINT: HRG-induced Akt activation (log2)
Form field (numeric): enter value without unit.

Recorded results for 3 sequences are shown here.
sequence_input=AUAAAGCUAGAUAACCGAAAGU value_measured=2.04
sequence_input=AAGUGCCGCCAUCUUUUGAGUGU value_measured=0.888
sequence_input=CAAAAACCACAGUUUCUUUUGC value_measured=0.997

Please report the recorded HRG-induced Akt activation (log2) for `AAAACUGUAAUUACUUUUGUAC` .
1.26

What do we get for `UGGGUGGUCUGGAGAUUUGUGC` ?
1.58

Then what about the sequence `AGUGUGGCUUUCUUAGAGC` ?
0.799
